Please go through the items and note down their IC50.
- Tested On: thrombin (Homo sapiens)
- Construct: consists of two polypeptide chains of 36 (light chain) and 259 amino acid
- Procedure Summary: Determination of Kis of purified thrombin inhibitors (IC50, Cheng-Prusoff)
- Type: biochemical
- Condition Notes: thrombin; replicate 3; read-out: IC50 (nM) Replicate 3
One number for each entry, in nM.

Examples from the recorded data:
- Compound: "CC(C)[C@H]1NC(=O)CCSSCCNC(=O)[C@H](CNC(=O)c2ccc(Cl)s2)NC(=O)c2cccc(c2)CNC1=O"
  Measurement Type: "IC50"
  Value Measured: 58
- Compound: "CC(C)C1NC(=O)CCSCSCCNC(=O)C(CNC(=O)c2ccc(Cl)s2)NC(=O)c2cccc(c2)CNC1=O (stereo not shown)"
  Measurement Type: "IC50"
  Value Measured: 99
- Compound: "O=C1CCSSCCNC(=O)C(CNC(=O)c2ccc(Cl)s2)NC(=O)c2cccc(c2)CNC(=O)C(Cc2ccccc2)N1 (stereo not shown)"
  Measurement Type: "IC50"
  Value Measured: 193

// below: IC50 requested for another compound
Reported IC50, compound CC(C)[C@@H]1NC(=O)CCSSCCNC(=O)[C@H](CNC(=O)c2ccc(Cl)s2)NC(=O)c2cccc(c2)CNC1=O : ____
150
